ASSAY_TEXT: clinical
RECORDED_CONDITIONS: human, in vivo, 1.3 mg/m2, AUC0-t

COMPOUND: CC[C@@]1(O)C(=O)OCc2c1cc1n(c2=O)Cc2cc3c(CN(C)C)c(O)ccc3nc2-1 [Topotecan, reference compound]
UNIT_ABBREVIATION: ng·h/mL
AUC0-t: 5.32

All figures here come from patent US20140135357A1.
